Test: Mouse pharmacokinetics study
Format: in vivo
Conditions: BALB/c mice, 10 mg/kg by oral gavage in 5% DMS/95% PEG400, plasma
Measurement Type: AUC(0-t) (ng·h/mL)

{"Smiles Text": "CNS(=O)(=O)c1ccc(NCc2ccccc2)c(-c2cn(C)cn2)c1", "Unit Abbrev": "ng·h/mL", "AUC(0-t)": 2250}
{"Smiles Text": "CNS(=O)(=O)c1ccc(NCc2cccc(C(F)(F)F)c2)c(-c2cn(C)cn2)c1", "Unit Abbrev": "ng·h/mL", "AUC(0-t)": 2520}
{"Smiles Text": "CNS(=O)(=O)c1ccc(NCc2ccc(C(F)(F)F)cc2)c(-c2cn(C)cn2)c1", "Unit Abbrev": "ng·h/mL", "AUC(0-t)": 4580}
{"Smiles Text": "CNS(=O)(=O)c1ccc(Nc2ccc(C(F)(F)F)cn2)c(-c2cn(C)cn2)c1", "Unit Abbrev": "ng·h/mL", "AUC(0-t)": 25900}
{"Smiles Text": "CNS(=O)(=O)c1ccc(N[C@H](C)c2ccccc2)c(-c2cn(C)cn2)c1", "Unit Abbrev": "ng·h/mL", "AUC(0-t)": 887}
{"Smiles Text": "CCNS(=O)(=O)c1ccc(Nc2cc(C(F)(F)F)ccn2)c(-c2cn(C)cn2)c1", "Unit Abbrev": "ng·h/mL", "AUC(0-t)": 521}
{"Smiles Text": "CNS(=O)(=O)c1ccc(Nc2cc(C(F)(F)F)ccn2)c(-c2cn(C)cn2)c1", "Unit Abbrev": "ng·h/mL", "AUC(0-t)": 731}
{"Smiles Text": "CNS(=O)(=O)c1cnc(Nc2cccc(C(F)(F)F)c2)c(-c2cn(C)cn2)c1", "Unit Abbrev": "ng·h/mL", "AUC(0-t)": 595}

(a) CNS(=O)(=O)c1ccc(Nc2cccc(C(F)(F)F)c2)c(-c2cn(C)cn2)c1
(b) CNS(=O)(=O)c1ccc(Nc2cccc(C(F)(F)F)c2)c(-c2nnn(C)n2)c1
Please indicate which entry, a or b , has the lower recorded AUC(0-t) value. Write the label of whichever entry you select.
b
(b: 622 ng·h/mL, a: 2330 ng·h/mL)

---

EC50 reference
Tested on: TEAD
Assay: TEAD reporter assay (Hippo Pathway TEAD Reporter - MCF7 cell line, luciferase)
Type: cell-based
Conditions: Homo sapiens; TEAD Reporter - MCF7 cells; read-out: TEAD Reporter Assay EC50
Text: TEAD inhibition can be assayed using Hippo Pathway TEAD Reporter—MCF7 Cell Line (BPS Bioscience, Catalog #: 60618). The TEAD Reporter—MCF7 cell line contains the firefly luciferase gene under the control of TEAD responsive elements stably integrated into the human breast cancer cell line, MCF7. Inside the cells, basal unphosphorylated YAP/TAZ remains in the nucleus and induces the constitutive expression of luciferase reporter. […]

{"Smiles Text": "CNS(=O)(=O)c1ccc(NCc2cccc(OC(F)(F)F)c2)c(-c2cn(C)cn2)c1", "Assay Result": "0.1 to 0.5 µM"}

What value of EC50 has been recorded for this entry: CNS(=O)(=O)c1ccc(Nc2ccc(C(C)(C)C)cn2)c(-c2cn(C)cn2)c1
< 0.1 µM

Which EC50 is reported for this compound? CNS(=O)(=O)c1ccc(NCc2ccccc2)c(-c2cn(C(C)C)cn2)c1
0.1 to 0.5 µM

Fill blank: measured EC50 of the compound CNS(=O)(=O)c1cnc(N[C@@H](C)c2ccccc2)c(-c2cn(C)cn2)c1 is ____.
> 0.5 µM

I would be grateful if you could share the reported EC50 for CNS(=O)(=O)c1ccc(Oc2cccc(C(F)(F)F)c2)c(-c2nc(C)c[nH]2)c1 .
> 0.5 µM

These measurements were taken from patent US11274082B2.
